Items are presented alongside their recorded Mean % WT Binding.
# SYSTEM UNDER TEST: human CD33 W22Y (human, UniProt P20138 18-364)
# Sequence (P20138 18-364 W22Y limits assumed): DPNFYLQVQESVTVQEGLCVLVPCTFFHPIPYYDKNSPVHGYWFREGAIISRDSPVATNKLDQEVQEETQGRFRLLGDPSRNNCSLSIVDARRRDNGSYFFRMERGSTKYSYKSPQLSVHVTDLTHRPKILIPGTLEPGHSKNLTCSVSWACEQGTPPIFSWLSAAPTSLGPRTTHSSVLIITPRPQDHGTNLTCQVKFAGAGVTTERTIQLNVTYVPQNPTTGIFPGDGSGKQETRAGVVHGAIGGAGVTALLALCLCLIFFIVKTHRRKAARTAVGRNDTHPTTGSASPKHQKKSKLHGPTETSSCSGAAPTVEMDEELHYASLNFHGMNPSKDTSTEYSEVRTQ
# ASSAY EXPLANATION: flow cytometry, mutant on cells, IgG

BINDER: Refmab #2 (antibody, human IgG1, V domains shown, Tested in IgG format; human IgG1 Fc silent (PG-LALA)) VH: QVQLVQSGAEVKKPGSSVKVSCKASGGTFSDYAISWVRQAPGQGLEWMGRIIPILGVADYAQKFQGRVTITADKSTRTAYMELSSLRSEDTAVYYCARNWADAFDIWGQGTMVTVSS VL: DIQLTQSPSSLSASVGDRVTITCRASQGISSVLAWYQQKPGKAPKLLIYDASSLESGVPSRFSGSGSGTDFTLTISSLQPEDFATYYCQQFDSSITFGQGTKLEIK
Mean % WT Binding / % WT binding: 107
--
BINDER: Refmab #1 (antibody, human IgG1, V domains shown, Tested in IgG format; human IgG1 (Absolute Antibody hP67.6, Cat. No. Ab00283-10.0); also called hP67.6) VH: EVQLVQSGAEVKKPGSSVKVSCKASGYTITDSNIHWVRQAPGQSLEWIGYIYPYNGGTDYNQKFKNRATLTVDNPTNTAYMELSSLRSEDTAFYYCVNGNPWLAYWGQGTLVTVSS VL: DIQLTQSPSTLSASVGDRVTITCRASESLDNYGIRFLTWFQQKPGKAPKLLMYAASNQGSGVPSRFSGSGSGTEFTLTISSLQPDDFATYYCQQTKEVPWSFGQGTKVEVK
Mean % WT Binding / % WT binding: 98
--
BINDER: Refmab #3 (antibody, human IgG1, V domains shown, Tested in IgG format; human IgG1 Fc silent (PG-LALA)) VH: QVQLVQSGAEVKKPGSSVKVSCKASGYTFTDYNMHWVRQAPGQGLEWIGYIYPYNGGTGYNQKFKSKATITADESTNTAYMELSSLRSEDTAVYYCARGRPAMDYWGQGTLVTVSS VL: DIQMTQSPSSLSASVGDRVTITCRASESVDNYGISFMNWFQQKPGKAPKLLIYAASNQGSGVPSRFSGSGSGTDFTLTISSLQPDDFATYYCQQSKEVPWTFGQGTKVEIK
Mean % WT Binding / % WT binding: 11.5
--
BINDER: Refmab #4 (antibody, human IgG1, V domains shown, Tested in IgG format; human IgG1 Fc silent (PG-LALA)) VH: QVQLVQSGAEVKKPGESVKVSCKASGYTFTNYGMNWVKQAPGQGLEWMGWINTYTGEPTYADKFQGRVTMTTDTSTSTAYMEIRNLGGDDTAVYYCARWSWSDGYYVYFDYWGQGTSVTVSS VL: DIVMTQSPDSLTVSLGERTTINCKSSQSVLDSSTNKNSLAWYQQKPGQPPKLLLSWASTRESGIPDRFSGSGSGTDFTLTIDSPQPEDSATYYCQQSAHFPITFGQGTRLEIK
Mean % WT Binding / % WT binding: 86.1
